- System: Meerschweinchenherzen
- experimentalDetails: QT-prolonging effect, ECG measurement on isolated Langendorff-perfused guinea pig heart
- Set-up: species or system Duncin-Hartley-Meerschweinchen
- experimentalConditions: concentration in perfusate giving 20 % increase of initial QT duration, cumulative addition every 15 min, from linear regression
measure: ED20 %

CN(CC(O)c1ccc(F)cc1)C1CCN(c2ccc([N+](=O)[O-])cc2)CC1 (stereo not drawn)    0,21 µmol/l
CN(Cc1ccc(NS(C)(=O)=O)cc1)CC1CCN(c2ccc(NS(C)(=O)=O)cc2)CC1    0,96 µmol/l
CC(C)NCC(O)c1ccc(NS(C)(=O)=O)cc1 [D-Sotalol, reference compound]    16,0 µmol/l
CN(Cc1ccccc1)CC1CCN(c2ccc([N+](=O)[O-])cc2)CC1    0,42 µmol/l

Query block: Param item = `N#Cc1ccc(N2CCC(N3CCN(c4ccc([N+](=O)[O-])cc4)CC3)CC2)cc1` ; retrieve measured ED20 %.
Result block: 0,031 µmol/l

Query block: Next entry: CN(Cc1ccccc1)C1CCCN(c2ccc([N+](=O)[O-])cc2)C1 (stereo not drawn)
Result block: 1,1 µmol/l
